target: C-X-C chemokine receptor type 3 (Homo sapiens); test: Displacement of [125I]IP10 from human recombinant CXCR3 receptor expressed in IL2-activated human PBMC in presence of plasma
pIC50: −log10 of the molar value.
Listed here: items and their measured pIC50.
MEASURE_NAME: pIC50

CCS(=O)(=O)CCN(C(=O)Cc1ccc(F)c(C(F)(F)F)c1)[C@H](C)c1nc(C2CC2)c(C(F)(F)F)n1-c1ccc(C#N)cc1    7.35
CCS(=O)(=O)CCN(C(=O)Cc1ccc(F)c(C(F)(F)F)c1)[C@H](C)c1nc(-c2cccnc2)cn1-c1ccc(C#N)cc1    7.54
CCOc1ccc(-n2cc(-c3ccccc3)nc2[C@@H](C)N(CCS(=O)(=O)CC)C(=O)Cn2nnc(-c3ccc(C(F)(F)F)cc3)n2)cc1    7.72
CCS(=O)(=O)CCN(C(=O)Cc1ccc(F)c(C(F)(F)F)c1)[C@H](C)c1nc(C2CC2)c(CO)n1-c1ccc(C#N)cc1    7.48
CCOc1ccc(-n2cc(-c3ccccc3)nc2[C@@H](C)N(C[C@H]2CCCN2C)C(=O)Cc2ccc(F)c(C(F)(F)F)c2)cc1    7.09

---

target: C-X-C chemokine receptor type 3 (Homo sapiens, UniProt P49682); test: Displacement of [125I]IP10 from human recombinant CXCR3 receptor expressed in IL2-activated human PBMC
Sequence (P49682 whole entry): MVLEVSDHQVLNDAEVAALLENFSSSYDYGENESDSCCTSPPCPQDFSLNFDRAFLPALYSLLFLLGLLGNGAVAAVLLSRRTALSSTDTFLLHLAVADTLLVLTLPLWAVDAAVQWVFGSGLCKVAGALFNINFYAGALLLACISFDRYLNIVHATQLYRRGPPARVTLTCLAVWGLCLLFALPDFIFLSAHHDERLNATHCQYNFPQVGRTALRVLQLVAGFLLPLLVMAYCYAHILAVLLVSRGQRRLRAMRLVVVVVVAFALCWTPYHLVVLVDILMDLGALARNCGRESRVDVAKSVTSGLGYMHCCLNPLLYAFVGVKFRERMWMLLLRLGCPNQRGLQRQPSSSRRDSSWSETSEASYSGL
MEASURE_NAME: IC50 (nM)

CCOc1ccc(-n2cc(-c3ccccc3)nc2[C@@H](C)N(CCS(=O)(=O)CC)C(=O)Cn2cnc(-c3ccccc3)c2)cc1    4.8
CCS(=O)(=O)CCN(C(=O)Cc1ccc(F)c(C(F)(F)F)c1)[C@H](C)c1nc(C2CC2)c(C(F)(F)F)n1-c1ccc(C#N)cc1    19
CCOc1ccc(-n2cc(-c3ccccc3)nc2[C@@H](C)N(CCS(=O)(=O)CC)C(=O)Cn2nnc(-c3ccc(F)cc3)n2)cc1    5
CCOc1ccc(-n2cc(-c3ccccc3)nc2[C@@H](C)N(CCS(=O)(=O)CC)C(=O)Cn2ccc(C(F)(F)F)n2)cc1    40
